TESTED_ON: CYP3A4 (Homo sapiens, UniProt P08684)
Sequence (P08684 whole entry): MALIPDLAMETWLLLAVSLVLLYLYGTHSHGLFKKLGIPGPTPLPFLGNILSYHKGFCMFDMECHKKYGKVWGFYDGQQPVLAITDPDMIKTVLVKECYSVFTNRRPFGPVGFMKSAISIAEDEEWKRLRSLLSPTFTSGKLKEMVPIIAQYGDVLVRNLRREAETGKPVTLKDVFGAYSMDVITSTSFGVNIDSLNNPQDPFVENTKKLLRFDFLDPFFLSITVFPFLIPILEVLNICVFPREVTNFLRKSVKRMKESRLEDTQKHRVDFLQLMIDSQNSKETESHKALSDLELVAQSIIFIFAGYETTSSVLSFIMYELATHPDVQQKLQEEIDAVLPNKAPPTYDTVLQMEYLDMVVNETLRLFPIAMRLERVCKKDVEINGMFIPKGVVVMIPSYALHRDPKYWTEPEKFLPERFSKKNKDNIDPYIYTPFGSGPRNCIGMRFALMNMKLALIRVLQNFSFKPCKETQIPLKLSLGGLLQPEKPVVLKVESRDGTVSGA
TEST_DETAILS: Enzyme kinetics
STUDY_CONDITIONS: human liver microsomes
EXPERIMENTAL_READOUT: Km (µM)
Kindly provide the numeric value in µM only, without the unit symbol.

Give Km (CYP3A4 (Homo sapiens, UniProt P08684)) of the following compound: CCC(C)n1ncn(-c2ccc(N3CCN(c4ccc(OCC5COC(Cn6cncn6)(c6ccc(Cl)cc6Cl)O5)cc4)CC3)cc2)c1=O (stereo not shown)
0.0233
